Entries annotated with measured normalized growth
- assay-explanation: chemical genetic growth profiling, strain panel (AID 1159580);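 further: tested at 20 µM; growth read once vehicle control cultures reached saturation at 30 °C; 1 = growth at the plate median or of vehicle wells; lower values mean less growth of the strain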
- settings: S. cerevisiae deletion strains, growth OD, locus YBR229C, strain ROT2, hits give low values
Out of some 5,500 compounds screened, about 2,000 (36%) were called active. About 18% were inconclusive and are not listed. The list shows a part of the results.

{"compound": "COc1cc(/C=C2/SC(=S)NC2=O)cc(OC)c1OC", "normalized growth": 0.894}
{"compound": "NC(N)=NC(N)=Nc1ccccc1", "normalized growth": 1.01}
{"compound": "CNC(Cc1c[nH]c2ccccc12)C(=O)O (centres undefined)", "normalized growth": 0.959}
{"compound": "COC(=O)c1scc(S(=O)(=O)C(C)C)c1N/N=C(/C#N)C(=O)c1ccccc1", "normalized growth": 0.974}
{"compound": "CC[C@@H](CO)NC(=O)[C@@H]1C=C2c3cccc4[nH]cc(c34)C[C@H]2N(C)C1", "normalized growth": 0.99}
{"compound": "NCCc1c[nH]c2ccccc12", "normalized growth": 0.954}
{"compound": "CC(=O)OCC(=O)[C@@]12OC3(CCCC3)O[C@@H]1CC1C3CCC4=CC(=O)C=C[C@]4(C)[C@@]3(F)[C@@H](O)C[C@@]12C (some centres undefined)", "normalized growth": 1.02}
{"compound": "O=C1C=C(Cl)CC(c2ccc(C(F)(F)F)cc2)C1 (centres undefined)", "normalized growth": 0.988}
{"compound": "COc1cc(O)cc(OC)c1OC", "normalized growth": 1.01}
{"compound": "CC(C)S(=O)(=O)c1csc(C(N)=O)c1Cl", "normalized growth": 1.02}
{"compound": "COc1cc2nc(-c3cccs3)oc(=O)c2cc1OC", "normalized growth": 0.984}
{"compound": "O=[N+]([O-])c1ccc(-c2nn[nH]n2)cc1", "normalized growth": 0.987}
{"compound": "COc1cc(/C=C2/N=C(c3ccccc3I)OC2=O)cc(OC)c1OC", "normalized growth": 1.01}
{"compound": "O=C(O)c1nccnc1C(=O)O", "normalized growth": 0.991}
{"compound": "COC1(C)CCC2OC2(C)CCC2C1CC2(C)C (centres undefined)", "normalized growth": 1.01}
{"compound": "c1cc(C2CCCCC2)ccc1C1CCCCC1", "normalized growth": 1}
{"compound": "CN[C@@H]1[C@@H](O[C@H]2O[C@H](CO)[C@@H](N)[C@H](O)[C@H]2O)O[C@H]2C[C@@H](N)[C@H](O[C@H]3[C@H](O)[C@@H](O)[C@H](N)C[C@@H]3N)O[C@@H]2[C@@H]1O", "normalized growth": 1.02}
{"compound": "CC(C)(C)c1ccc(-c2cc(N)c(C(N)=O)s2)cc1", "normalized growth": 0.997}
{"compound": "CCC1(CC)C(=O)C=CNC1=O", "normalized growth": 1.01}
